TGI values for the compounds below.
- Test system: ACHN renal
- Test description: NCI tumour cell line growth inhibition, 48 h
Observable: TGI

- O=S(=O)(c1cc(Cl)ccc1Cl)n1ccnc1: > 100 µM
- C/C(Cl)=N\OC(=O)Nc1ccc(C)cc1: 29.1 µM
- NC(=O)c1csc(C2(O)COC(CO)C2O)n1 (stereo unspecified): > 100 µM
- Cc1[nH]c(=O)nc(NCCNCCO)c1C(=O)Nc1cccc2cc3ccccc3cc12: > 100 µM
- CCN(CC)C(=S)Oc1cc2oc(=O)cc(C)c2cc1Cl: > 100 µM
- COc1ccc(/C=C2\CCCC(C(NO)c3ccc(OC)cc3)C2=NO)cc1 (stereo unspecified): > 100 µM
